These entries and their values trace back to patent US10544143B2.

Target: human TLR7 (Homo sapiens (Human))
Assay: TLR7 inhibition reporter assay (HEK-Blue SEAP)
Assay type: cell-based
Conditions: HEK-Blue human TLR7 cells, gardiquimod 7.5 μM
For each entry below, report its pIC50 value.
Answers are plain numbers, as −log10 of the molar value.

Working through the 5 molecules below one at a time, give pIC50 for each.
1. Cc1c(-c2[nH]c3ccc(N4CCC(N(C)CC(=O)N(C)C)CC4)nc3c2C(C)C)cn2ncnc2c1C
2. Cc1c(-c2[nH]c3ccc(N4CC5(CN(CC(C)(C)O)C5)C4)nc3c2C(C)C)cn2ncnc2c1C
3. Cc1c(-c2[nH]c3ccc(N4CCN(C(=O)CN(CCO)C(C)(C)C)C[C@H]4C)nc3c2C(C)C)cn2ncnc2c1C
4. CCN(C)CC(=O)N1CCN(c2ccc3[nH]c(-c4cn5ncnc5c(C)c4C)c(C(C)C)c3n2)CC1
5. CCCCN(CC(=O)N1CCN(c2ccc3[nH]c(-c4cn5ncnc5c(C)c4C)c(C(C)C)c3n2)CC1)C(C)C

1: 8.62; 2: 8.68; 3: 9.04; 4: 9.25; 5: 8.48

Working through the 2 molecules below one at a time, give pIC50 for each.
1. Cc1c(-c2[nH]c3ccc(N4CCN(CCCS(C)(=O)=O)[C@H](C)C4)nc3c2C(C)C)cn2ncnc2c1C
2. Cc1c(-c2[nH]c3ccc(C4CCC(NC5CCS(=O)(=O)CC5)CC4)nc3c2C(C)C)cn2ncnc2c1C (stereo not shown)

1: 8.14; 2: 8.68

###

Target: human TLR8 (Homo sapiens (Human))
Assay: TLR8 inhibition reporter assay (HEK-Blue SEAP)
Settings: read-out: TLR8 IC50; HEK-Blue cells overexpressing human TLR8, SEAP reporter, R848 15.9 μM
# strict inequality: IC50 < 3 nM yields true, everything else yields false

Cc1c(-c2[nH]c3ccc(C4CN(C)CCO4)nc3c2C(C)C)cn2ncnc2c1C (centres unmarked) [Example 673]	false

Say whether its IC50 is strictly beneath 3 nM. Entry: Cc1cc(-c2[nH]c3ccc(C4CCNCC4)nc3c2C(C)C)cn(C)c1=O [Example 515]
false

Say whether its IC50 is strictly beneath 3 nM. Entry: Cc1c(-c2[nH]c3ccc(C4CCC5(CC4)CNC5)nc3c2C(C)C)cn2ncnc2c1C [Example 491]
false

Say whether its IC50 is strictly beneath 3 nM. Entry: Cc1c(-c2[nH]c3ccc(C4CCC(NC5CC5)CC4)nc3c2C(C)C)cn2ncnc2c1C (centres unmarked) [Example 421]
true

Say whether its IC50 is strictly beneath 3 nM. Entry: Cc1c(-c2[nH]c3ccc(C4CCN(CC(N)=O)CC4)nc3c2C(C)C)cn2ncnc2c1C [Example 560]
true

Say whether its IC50 is strictly beneath 3 nM. Entry: Cc1c(-c2[nH]c3ccc(C4CCC(N)CC4)nc3c2C(C)C)cn2ncnc2c1C (centres unmarked) [Example 469]
true

Say whether its IC50 is strictly beneath 3 nM. Entry: CNC(=O)CN(C1CCC(c2ccc3[nH]c(-c4cn5ncnc5c(C)c4C)c(C(C)C)c3n2)CC1)C1COC1 (centres unmarked) [Example 449]
false

###

Molecular target: human TLR8 (Homo sapiens (Human), UniProt Q9NR97)
Sequence (Q9NR97 27-1041): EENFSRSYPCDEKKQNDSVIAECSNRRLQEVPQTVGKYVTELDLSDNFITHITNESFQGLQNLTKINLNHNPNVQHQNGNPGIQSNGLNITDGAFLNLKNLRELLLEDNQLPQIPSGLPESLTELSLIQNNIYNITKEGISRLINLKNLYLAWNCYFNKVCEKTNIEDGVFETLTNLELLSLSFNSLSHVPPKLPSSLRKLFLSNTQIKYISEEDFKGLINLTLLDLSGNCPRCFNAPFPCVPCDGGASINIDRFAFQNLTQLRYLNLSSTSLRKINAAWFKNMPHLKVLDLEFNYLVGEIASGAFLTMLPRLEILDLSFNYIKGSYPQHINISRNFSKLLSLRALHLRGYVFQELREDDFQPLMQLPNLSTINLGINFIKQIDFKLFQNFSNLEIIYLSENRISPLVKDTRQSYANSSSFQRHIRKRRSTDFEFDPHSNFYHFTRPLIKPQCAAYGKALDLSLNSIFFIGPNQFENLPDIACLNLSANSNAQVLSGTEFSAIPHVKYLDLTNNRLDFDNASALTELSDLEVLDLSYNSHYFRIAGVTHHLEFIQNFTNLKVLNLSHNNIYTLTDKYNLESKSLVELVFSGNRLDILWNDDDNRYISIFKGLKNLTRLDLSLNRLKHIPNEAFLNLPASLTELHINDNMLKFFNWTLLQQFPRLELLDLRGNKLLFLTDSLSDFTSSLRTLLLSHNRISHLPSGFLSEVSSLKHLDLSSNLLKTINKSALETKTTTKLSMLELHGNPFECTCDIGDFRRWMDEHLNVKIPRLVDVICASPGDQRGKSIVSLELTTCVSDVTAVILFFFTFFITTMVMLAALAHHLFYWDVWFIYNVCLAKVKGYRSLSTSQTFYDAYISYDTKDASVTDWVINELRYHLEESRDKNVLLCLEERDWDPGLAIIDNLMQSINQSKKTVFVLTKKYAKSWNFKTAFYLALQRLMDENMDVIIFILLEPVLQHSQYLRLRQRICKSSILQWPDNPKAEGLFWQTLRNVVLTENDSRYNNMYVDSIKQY
Test: TLR8 inhibition reporter assay (HEK-Blue SEAP);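 further: SEAP driven by IFN-β minimal promoter carrying NF-κB and AP-1 sites, compounds dosed 0.05 nM to 50 µM for 22 h, inhibition scaled between agonist-plus-DMSO and reference-inhibitor wells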
Settings: TLR8 IC50, HEK-Blue cells overexpressing human TLR8, R848 15.9 μM stimulation, SEAP reporter
propertyMeasured: pIC50
Numbers only, as −log10 of the molar value.

# count of solved cases: 2
COc1cc(-c2[nH]c3ccc(C4CCC(N)C4)nc3c2C(C)C)cn2ncnc12 (single isomer, unassigned) [Example 8]	7.68
COc1cc(-c2[nH]c3ccc(C4CCC(N)C4)nc3c2C(C)C)cn2ncnc12 (racemic) [Example 9]	8.09

For the next question, use this molecule.
Identify pIC50 associated with the molecule COc1cc(-c2[nH]c3ccc(C4CCC(N)C4)nc3c2C(C)C)cn2ncnc12 (racemic) [Example 7]
7.28

###

For each entry below, report its IC50 value.
Target: UniProt:Q9NR97
Experiment: TLR8 inhibition reporter assay (HEK-Blue SEAP)
Details: read-out: TLR8 IC50; HEK-Blue cells overexpressing human TLR8, R848 15.9 μM stimulation, SEAP reporter
Give bare numbers, in nM.

# count of solved cases: 3
CNC1CCC(c2ccc3[nH]c(-c4cn5ncnc5c(C)c4C)c(C(C)C)c3n2)CC1 (single isomer, unassigned) [Example 369]	1.3
COc1cc(-c2[nH]c3ccc(C4CCC(N(C)C5COC5)CC4)nc3c2C(C)C)cn2ncnc12 (stereo not drawn) [Example 240]	16
CC(C)c1c(-c2cn(C)c3ncccc23)[nH]c2ccc(C3CCC(NCC(=O)N(C)C)CC3)nc12 (stereo not drawn) [Example 183]	15

Working through the 8 compounds below one at a time, give IC50 for each.
1. CC(C)c1c(-c2cn(C)c3ncccc23)[nH]c2ccc(C3CCC(N4CC5(COC5)C4)CC3)nc12 (stereo not drawn) [Example 245]
2. CC(C)c1c(-c2cn(CCS(C)(=O)=O)c3ncccc23)[nH]c2ccc(C3CCC(O)CC3)nc12 (stereo not drawn) [Example 260]
3. Cc1c(-c2[nH]c3ccc(N4CCC(N(C)C5CCC5)CC4)nc3c2C(C)C)cn2ncnc2c1C [Example 59]
4. Cc1c(-c2[nH]c3ccc(C4CCC(N(C5CC5)C5COC5)CC4)nc3c2C(C)C)cn2cnnc2c1C (stereo not drawn) [Example 237]
5. CC(C)c1c(-c2cn(C)c3ncncc23)[nH]c2ccc(N3CCNCC3)nc12 [Example 122]
6. CNC(=O)CNC1CCC(c2ccc3[nH]c(-c4cc(OC)c5ncnn5c4)c(C(C)C)c3n2)C1 (stereo not drawn) [Example 10]
7. COc1cc(-c2[nH]c3ccc(C4CCC(N(C)Cc5ncccn5)CC4)nc3c2C(C)C)cn2ncnc12 (stereo not drawn) [Example 209]
8. Cc1cnc(CNC2CCC(c3ccc4[nH]c(-c5cn6ncnc6c(C)c5C)c(C(C)C)c4n3)CC2)cn1 (stereo not drawn) [Example 359]

[4.7, 173, 1.1, 19, 1.1, 5.3, 4, 29]

###

Molecular target: human TLR7 (Homo sapiens (Human), UniProt Q9NYK1)
Sequence (Q9NYK1 27-1049): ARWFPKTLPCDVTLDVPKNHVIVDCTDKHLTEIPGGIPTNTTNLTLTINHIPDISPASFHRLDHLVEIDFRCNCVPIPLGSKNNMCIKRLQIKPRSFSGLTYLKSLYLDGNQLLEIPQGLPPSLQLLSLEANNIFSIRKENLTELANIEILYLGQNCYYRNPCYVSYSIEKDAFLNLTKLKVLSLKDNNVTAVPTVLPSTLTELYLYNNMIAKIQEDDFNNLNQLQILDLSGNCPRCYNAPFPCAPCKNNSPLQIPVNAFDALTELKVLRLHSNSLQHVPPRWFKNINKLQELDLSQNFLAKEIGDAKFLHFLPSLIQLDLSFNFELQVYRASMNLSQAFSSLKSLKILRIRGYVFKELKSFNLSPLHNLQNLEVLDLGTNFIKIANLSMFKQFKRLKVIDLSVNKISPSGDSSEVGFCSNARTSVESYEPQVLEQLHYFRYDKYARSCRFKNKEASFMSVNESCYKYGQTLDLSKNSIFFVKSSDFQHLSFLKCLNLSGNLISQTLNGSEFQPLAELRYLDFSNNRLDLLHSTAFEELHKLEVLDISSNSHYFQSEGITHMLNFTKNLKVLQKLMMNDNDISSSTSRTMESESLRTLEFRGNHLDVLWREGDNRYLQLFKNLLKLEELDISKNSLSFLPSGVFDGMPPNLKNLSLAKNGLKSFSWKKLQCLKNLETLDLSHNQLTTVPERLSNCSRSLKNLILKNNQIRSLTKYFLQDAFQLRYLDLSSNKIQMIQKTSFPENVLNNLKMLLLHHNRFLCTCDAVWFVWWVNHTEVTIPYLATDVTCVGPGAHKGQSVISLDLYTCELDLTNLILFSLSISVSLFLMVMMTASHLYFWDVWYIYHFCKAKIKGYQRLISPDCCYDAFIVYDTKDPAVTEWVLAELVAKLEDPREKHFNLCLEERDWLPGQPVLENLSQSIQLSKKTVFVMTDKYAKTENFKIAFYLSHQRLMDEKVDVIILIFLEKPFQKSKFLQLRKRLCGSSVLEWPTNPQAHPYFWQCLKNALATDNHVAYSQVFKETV
Test: TLR7 inhibition reporter assay (HEK-Blue SEAP)
Assay type: cell-based
Settings: HEK-Blue cells overexpressing human TLR7, SEAP reporter, gardiquimod 7.5 μM
For each entry below, report its log10 IC50 value.
Please interpret these as log10 of IC50 where IC50 is in nM.

Cc1cc(-c2[nH]c3ccc(OC4CCN(C)CC4)nc3c2C(C)C)cn2ncnc12 [Example 594]	0.59

Working through the 5 compounds below one at a time, give log10 IC50 for each.
1. Cc1c(-c2[nH]c3ccc(C4CCC(NCC5(C)COC5)CC4)nc3c2C(C)C)cn2ncnc2c1C (stereo not drawn) [Example 474]
2. COc1cc(-c2[nH]c3ccc(C4CCN(CC(=O)N(C)C)CC4)nc3c2C(C)C)cn2ncnc12 [Example 537]
3. Cc1c(-c2[nH]c3ccc(N4[C@@H](C)CN(C(=O)CN(C)C)C[C@@H]4C)nc3c2C(C)C)cn2ncnc2c1C [Example 752]
4. COc1ncc(CN(C)C2CCC(c3ccc4[nH]c(-c5cn6ncnc6c(C)c5C)c(C(C)C)c4n3)CC2)cn1 (stereo not drawn) [Example 395]
5. Cc1c(-c2[nH]c3ccc(C4CCC(N(CC#N)CC(=O)N(C)C)CC4)nc3c2C(C)C)cn2ncnc2c1C (stereo not drawn) [Example 456]

-0.34
0.32
-0.42
0.87
0.41

Working through the 2 compounds below one at a time, give log10 IC50 for each.
1. COc1cc(-c2[nH]c3ccc(CCC4CN(CC(C)(C)O)C4)nc3c2C(C)C)cn2ncnc12 [Example 693]
2. COc1cc(-c2[nH]c3ccc(C4CC(NC(=O)CN(C)C)C4)nc3c2C(C)C)cn2ncnc12 (stereo not drawn) [Example 638]

1: 0.81; 2: 0.46

###

For each entry below, report its pIC50 value.
Biological target: UniProtKB Q9NYK1
Test: TLR7 inhibition reporter assay (HEK-Blue SEAP)
Assay type: cell-based
Details: HEK-Blue human TLR7 cells, gardiquimod 7.5 μM
Numbers only, as −log10 of the molar value.

Working through the 5 compounds below one at a time, give pIC50 for each.
1. Cc1c(-c2[nH]c3ccc(N4CCN(C(=O)CN5CCC(C)(O)C5)CC4)nc3c2C(C)C)cn2ncnc2c1C (stereo not shown)
2. Cc1c(-c2[nH]c3ccc(N4CCN(CCN(C)C)C(=O)C4)nc3c2C(C)C)cn2ncnc2c1C
3. Cc1c(-c2[nH]c3ccc(C4CCC(N(C)C(C)C)CC4)nc3c2C(C)C)cn2ncnc2c1C (stereo not shown)
4. Cc1c(-c2[nH]c3ccc(N4C[C@@H](C)N(C(=O)CN5CCCC5)[C@H](C)C4)nc3c2C(C)C)cn2ncnc2c1C
5. Cc1c(-c2[nH]c3ccc(N4CCN(C(=O)CN(CC(C)C)CC(C)C)CC4)nc3c2C(C)C)cn2ncnc2c1C

1: 8.55; 2: 5.92; 3: 8.36; 4: 8.82; 5: 7.60

Working through the 5 compounds below one at a time, give pIC50 for each.
1. COc1cc(-c2[nH]c3ccc(C4CCC(N5CC6(COC6)C5)CC4)nc3c2C(C)C)cn2ncnc12 (stereo not shown)
2. Cc1c(-c2[nH]c3ccc(N4CCN(C(=O)CN(C(C)C)C(C)C)CC4)nc3c2C(C)C)cn2ncnc2c1C
3. CCCCN(C)CC(=O)N1CCN(c2ccc3[nH]c(-c4cn5ncnc5c(C)c4C)c(C(C)C)c3n2)CC1
4. CCN(CC(=O)N1C[C@H](C)N(c2ccc3[nH]c(-c4cn5ncnc5c(C)c4C)c(C(C)C)c3n2)C[C@H]1C)C(C)C
5. Cc1c(-c2[nH]c3ccc(N4C[C@@H](C)N(CC(N)=O)[C@@H](C)C4)nc3c2C(C)C)cn2ncnc2c1C

1: 8.51; 2: 8.13; 3: 8.92; 4: 9.01; 5: 8.35

Working through the 4 compounds below one at a time, give pIC50 for each.
1. Cc1c(-c2[nH]c3ccc(N4[C@H](C)CN(C(=O)CN(C)C)C[C@H]4C)nc3c2C(C)C)cn2ncnc2c1C
2. CNC(=O)CN1CCN(c2ccc3[nH]c(-c4cn5ncnc5c(C)c4C)c(C(C)C)c3n2)[C@@H](C)C1
3. Cc1c(-c2[nH]c3ccc(N4CCN(C(=O)C5CN(C)C5)CC4)nc3c2C(C)C)cn2ncnc2c1C
4. Cc1c(-c2[nH]c3ccc(N4CCN(CC(=O)N(C)C)C[C@@H]4C)nc3c2C(C)C)cn2ncnc2c1C

1: 9.28; 2: 8.66; 3: 9.06; 4: 8.37

Working through the 3 compounds below one at a time, give pIC50 for each.
1. Cc1c(-c2[nH]c3ccc(N4C[C@@H](C)N(C(=O)CCN(C)C)[C@H](C)C4)nc3c2C(C)C)cn2ncnc2c1C
2. Cc1c(-c2[nH]c3ccc(C4CCC(N5CC6(CCOC6)C5)CC4)nc3c2C(C)C)cn2ncnc2c1C (stereo not shown) [Example 1061]
3. Cc1c(-c2[nH]c3ccc(N4CCN(C(=O)CNC(C)C)C[C@@H]4C)nc3c2C(C)C)cn2ncnc2c1C

8.55
8.57
9.34

Working through the 4 compounds below one at a time, give pIC50 for each.
1. Cc1c(-c2[nH]c3ccc(N4C5CNCC4COC5)nc3c2C(C)C)cn2ncnc2c1C
2. [2H]C1([2H])NC([2H])([2H])C([2H])([2H])N(c2ccc3[nH]c(-c4cn5ncnc5c(C)c4C)c(C(C)C)c3n2)C1([2H])[2H]
3. Cc1c(-c2[nH]c3ccc(N4CCN(C5CCOCC5)C[C@@H]4C)nc3c2C(C)C)cn2ncnc2c1C
4. Cc1c(-c2[nH]c3ccc(N4CCN(C(=O)CN(C)C5COC5)CC4)nc3c2C(C)C)cn2ncnc2c1C

1. 8.48
2. 9.19
3. 8.57
4. 8.10

Working through the 7 compounds below one at a time, give pIC50 for each.
1. Cc1c(-c2[nH]c3ccc(N4CC5(CN(CCC(N)=O)C5)C4)nc3c2C(C)C)cn2ncnc2c1C
2. Cc1c(-c2[nH]c3ccc(C4CC5(C4)CN(CCS(C)(=O)=O)C5)nc3c2C(C)C)cn2ncnc2c1C
3. Cc1c(-c2[nH]c3ccc(N4CCN(C(=O)CN5CC6(CCOC6)C5)CC4)nc3c2C(C)C)cn2ncnc2c1C
4. Cc1c(-c2[nH]c3ccc(N4CCN(C(=O)CN5CCCC5)C[C@H]4C)nc3c2C(C)C)cn2ncnc2c1C
5. COc1cc(-c2[nH]c3ccc(C4CCC(N5CC6(CCO6)C5)CC4)nc3c2C(C)C)cn2ncnc12 (stereo not shown) [Example 1075]
6. CCN(CC)CC(=O)N1C[C@H](C)N(c2ccc3[nH]c(-c4cn5ncnc5c(C)c4C)c(C(C)C)c3n2)C[C@H]1C
7. Cc1c(-c2[nH]c3ccc(N4CCN(C(=O)CN5CC6(COC6)C5)[C@@H](C)C4)nc3c2C(C)C)cn2ncnc2c1C

1: 8.36; 2: 8.35; 3: 9.00; 4: 9.15; 5: 8.74; 6: 9.13; 7: 8.96
